src = patent US20240270821A1

tgt: T1, human GIP receptor (human) (UniProt P48546)
T1 sequence (looked up): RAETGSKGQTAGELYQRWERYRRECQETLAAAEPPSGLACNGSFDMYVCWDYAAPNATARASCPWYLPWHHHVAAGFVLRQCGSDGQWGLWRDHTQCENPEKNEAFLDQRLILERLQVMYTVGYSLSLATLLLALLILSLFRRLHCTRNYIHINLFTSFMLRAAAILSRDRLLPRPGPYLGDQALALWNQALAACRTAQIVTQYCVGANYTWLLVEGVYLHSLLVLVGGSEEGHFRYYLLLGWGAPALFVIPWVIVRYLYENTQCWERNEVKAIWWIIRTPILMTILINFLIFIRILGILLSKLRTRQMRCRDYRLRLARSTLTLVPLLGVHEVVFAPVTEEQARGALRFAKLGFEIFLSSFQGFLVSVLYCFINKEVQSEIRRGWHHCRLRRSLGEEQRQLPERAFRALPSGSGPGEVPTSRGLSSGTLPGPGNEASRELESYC
experimental.details: cell-based or functional assay
Form field: cAMP Rel EC50 (in the presence of 1% HSA) (one value per entry).
measured.quantity: cAMP Rel EC50 (in the presence of 1% HSA) (nM)

binder: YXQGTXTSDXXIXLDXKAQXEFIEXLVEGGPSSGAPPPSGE (non-natural residues; lipidated Lys; C-terminal amide; synthetic construct; SITE 2: note = 2-Aminoisobutyric Acid; SITE 6: note = alpha-methyl-2-fluoro-L-phenylalanine; SITE 10: note = 3-(4-Pyridyl)-L-alanine; SITE 11: note = alpha-methyl-L-serine; SITE 13: note = alpha-methyl-leucine; SITE 16: note = L-ornithine; SITE 17: note = Lysine is chemically mo) [Example 1160]
assay.value: 0.598
--
binder: YXQGTFTSDFSXXLDKKAQXAFIEWLLEGGPSSGAPPPTGS (acylated Lys, C-terminal amide, non-natural residues; synthetic construct; SITE 2: note = 2-Aminoisobutyric Acid; SITE 12: note = L-ornithine; SITE 13: note = alpha-methyl-leucine; SITE 17: note = Lysine is chemically modified through conjugation of the epsilon-amino group of the Lysine side chain with (2-[2-(2-Amino-ethoxy)-ethoxy]-acetyl)-(gamma-Glu)) [Example 250]
assay.value: 11.7
--
binder: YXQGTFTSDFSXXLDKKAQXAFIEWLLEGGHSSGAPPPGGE (Aib, Orn, αMeL; lipidated Lys; C-terminal amide; synthetic construct; SITE 2: note = 2-Aminoisobutyric Acid; SITE 12: note = L-ornithine; SITE 13: note = alpha-methyl-leucine; SITE 17: note = Lysine is chemically modified through conjugation of the epsilon-amino group of the Lysine side chain with (2-[2-(2-Amino-ethoxy)-ethoxy]-acetyl)2-(gamma-Glu)) [Example 271]
assay.value: 15.7
--
binder: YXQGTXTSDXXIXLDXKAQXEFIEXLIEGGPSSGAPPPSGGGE (non-natural residues; lipidated Lys (γGlu)2-C18 diacid; C-term amide; synthetic construct; SITE 2: note = 2-Aminoisobutyric Acid; SITE 6: note = alpha-methyl-L-phenylalanine; SITE 10: note = 3-(4-Pyridyl)-L-alanine; SITE 11: note = alpha-methyl-L-serine; SITE 13: note = alpha-methyl-leucine; SITE 16: note = L-ornithine; SITE 17: note = Lysine is chemically modified th) [Example 1174]
assay.value: 0.707
--
binder: YXQGTFTSDFSXXLDKKAQXAFIEYLLEAGPSSGXPPPSGX (acylated lysine (AEEA)2-γGlu-C18 diacid; non-natural residues; C-terminal amide; synthetic construct; SITE 2: note = 2-Aminoisobutyric Acid; SITE 12: note = L-ornithine; SITE 13: note = alpha-methyl-leucine; SITE 17: note = Lysine is chemically modified through conjugation of the epsilon-amino group of the Lysine side chain with (2-[2-(2-Amino-ethoxy)-ethoxy]-acetyl)2-(gamma-Glu)) [Example 258]
assay.value: 23.3
--
binder: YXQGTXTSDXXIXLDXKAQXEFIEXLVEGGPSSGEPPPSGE (non-natural residues; lipidated Lys; C-terminal amide; synthetic construct; SITE 2: note = 2-Aminoisobutyric Acid; SITE 6: note = alpha-methyl-2-fluoro-L-phenylalanine; SITE 10: note = 3-(4-Pyridyl)-L-alanine; SITE 11: note = alpha-methyl-L-serine; SITE 13: note = alpha-methyl-leucine; SITE 16: note = L-ornithine; SITE 17: note = Lysine is chemically mo) [Example 1161]
assay.value: 0.733
